- Test system: Human colon tumor cell lines HT29
- PROCEDURE_TEXT: MTT assay, in vitro anti-tumor activity screening, HT29
- Type: cell-based
- RUN_PARAMETERS: HT-29, HT29 colon tumor cell line, read-out: half inhibitory concentration IC50, HT29
IC50 overview
ASSAY_READOUT: IC50 (µM)

- MOLECULE: "C=C(C)[C@@H]1CC[C@]2(COC(=O)C3CCCN3C(C)=O)CC[C@]3(C)C(CC[C@@H]4[C@@]5(C)CC[C@H](O)C(C)(C)[C@@H]5CC[C@]43C)[C@@H]12 (stereo partly drawn)"
  TARGET_ENTITY: "Human colon tumor cell lines HT29"
  ASSAY_READOUT: "IC50"
  SIGN_QUALIFIER: "="
  TEST_VALUE: 8.88
- MOLECULE: "C=C(C)[C@@H]1CC[C@]2(CO)CC[C@]3(C)[C@H](CC[C@@H]4[C@@]5(C)CC[C@H](O)C(C)(C)[C@@H]5CC[C@]43C)[C@@H]12"
  TARGET_ENTITY: "Human colon tumor cell lines HT29"
  ASSAY_READOUT: "IC50"
  SIGN_QUALIFIER: ">"
  TEST_VALUE: 100
- MOLECULE: "C=C(C)[C@@H]1CC[C@]2(COC(=O)C(CC(C)C)NC(C)=O)CC[C@]3(C)C(CC[C@@H]4[C@@]5(C)CC[C@H](O)C(C)(C)[C@@H]5CC[C@]43C)[C@@H]12 (stereo partly drawn)"
  TARGET_ENTITY: "Human colon tumor cell lines HT29"
  ASSAY_READOUT: "IC50"
  SIGN_QUALIFIER: "="
  TEST_VALUE: 18.1
- MOLECULE: "C=C(C)[C@@H]1CC[C@]2(COC(=O)C(NC(C)=O)C(C)CC)CC[C@]3(C)C(CC[C@@H]4[C@@]5(C)CC[C@H](O)C(C)(C)[C@@H]5CC[C@]43C)[C@@H]12 (stereo partly drawn)"
  TARGET_ENTITY: "Human colon tumor cell lines HT29"
  ASSAY_READOUT: "IC50"
  SIGN_QUALIFIER: "="
  TEST_VALUE: 15
- MOLECULE: "C=C(C)[C@@H]1CC[C@]2(COC(=O)C(NC(C)=O)C(C)C)CC[C@]3(C)C(CC[C@@H]4[C@@]5(C)CC[C@H](O)C(C)(C)[C@@H]5CC[C@]43C)[C@@H]12 (stereo partly drawn)"
  TARGET_ENTITY: "Human colon tumor cell lines HT29"
  ASSAY_READOUT: "IC50"
  SIGN_QUALIFIER: "="
  TEST_VALUE: 14.1
- MOLECULE: "C=C(C)[C@@H]1CC[C@]2(COC(=O)C(C)NC(C)=O)CC[C@]3(C)C(CC[C@@H]4[C@@]5(C)CC[C@H](O)C(C)(C)[C@@H]5CC[C@]43C)[C@@H]12 (stereo partly drawn)"
  TARGET_ENTITY: "Human colon tumor cell lines HT29"
  ASSAY_READOUT: "IC50"
  SIGN_QUALIFIER: "="
  TEST_VALUE: 6.58
